Reference for the values: ChEMBL document CHEMBL4622895

biological target: hERG (KCNH2) (Homo sapiens, UniProt Q12809); experiment: Inhibition of human ERG at 10 uM relative to control
Sequence (Q12809 whole entry): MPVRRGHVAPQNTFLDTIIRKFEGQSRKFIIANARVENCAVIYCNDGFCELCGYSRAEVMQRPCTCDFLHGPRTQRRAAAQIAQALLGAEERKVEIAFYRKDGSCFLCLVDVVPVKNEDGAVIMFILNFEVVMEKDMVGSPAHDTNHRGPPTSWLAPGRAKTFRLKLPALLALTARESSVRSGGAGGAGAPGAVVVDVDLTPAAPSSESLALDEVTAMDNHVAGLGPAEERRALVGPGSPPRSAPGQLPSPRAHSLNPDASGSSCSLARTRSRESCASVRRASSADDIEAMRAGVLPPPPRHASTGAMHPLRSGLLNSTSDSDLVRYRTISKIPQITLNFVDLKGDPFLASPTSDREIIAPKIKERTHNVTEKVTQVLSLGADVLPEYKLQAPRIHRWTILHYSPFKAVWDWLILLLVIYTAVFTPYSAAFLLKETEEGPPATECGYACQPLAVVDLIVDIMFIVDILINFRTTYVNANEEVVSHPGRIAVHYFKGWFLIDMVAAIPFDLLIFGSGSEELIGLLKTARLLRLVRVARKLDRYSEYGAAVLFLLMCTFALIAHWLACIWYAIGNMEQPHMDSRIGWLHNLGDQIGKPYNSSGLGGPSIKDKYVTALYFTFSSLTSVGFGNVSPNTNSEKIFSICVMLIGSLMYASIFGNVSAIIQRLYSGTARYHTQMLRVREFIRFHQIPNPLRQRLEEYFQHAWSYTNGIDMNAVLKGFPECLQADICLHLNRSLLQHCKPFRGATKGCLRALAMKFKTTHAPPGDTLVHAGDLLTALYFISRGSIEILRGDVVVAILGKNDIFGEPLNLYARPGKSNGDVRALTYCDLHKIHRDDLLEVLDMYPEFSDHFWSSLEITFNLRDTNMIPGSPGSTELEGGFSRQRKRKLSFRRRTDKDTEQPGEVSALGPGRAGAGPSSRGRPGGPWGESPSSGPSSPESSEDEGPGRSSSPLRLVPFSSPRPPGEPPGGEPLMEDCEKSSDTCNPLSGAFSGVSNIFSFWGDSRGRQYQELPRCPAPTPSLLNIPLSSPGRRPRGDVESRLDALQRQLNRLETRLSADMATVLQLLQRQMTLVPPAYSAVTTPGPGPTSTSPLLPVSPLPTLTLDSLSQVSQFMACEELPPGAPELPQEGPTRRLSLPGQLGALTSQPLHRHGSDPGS
Recorded inhibition at 10 µM by entry
Answer format: value, then unit.

Consider the following illustrative entries.
{"columns": ["query_smiles", "measured_value"],
 "data": [
  ["Cc1ccc(-c2ncnc(Nc3ccc(C(=N)N)cc3Cl)c2O)cc1", "8.3%"],
  ["Cc1ccc(-c2ncnc(Nc3ccc4c(c3)CNC4=N)c2O)cc1", "6.4%"],
  ["Cc1ccc(-c2ncnc(Nc3ccc(C(=N)N)cc3)c2O)cc1", "11%"]
]}

Bench note: what inhibition at 10 µM did `Cc1ccc(-c2ncnc(Nc3ccc(CN)cc3)c2O)cc1` show? 7.2%

`Cc1ccc(-c2ncnc(Nc3ccc4c(c3Cl)CNC4=N)c2O)cc1` , same question. 9.3%
